assay: chemical genetic growth profiling, strain panel (AID 1159580);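 note: tested at 20 µM; growth read once vehicle control cultures reached saturation at 30 °C; 1 = growth at the plate median or of vehicle wells; lower values mean less growth of the strain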; conditions: S. cerevisiae deletion strains, growth OD, locus YLR342W, strain FKS1, active compounds read low
The whole screen tested about 5,500 compounds, of which about 2,000 (36%) were called active. Another 18% or so got no clear call; they are omitted. The list shows a part of the results.
// NB: equality with 1 counts as FALSE; only normalized growth strictly below is TRUE

IN: For OCCN1CCN(CCCN2c3ccccc3Sc3ccc(C(F)(F)F)cc32)CC1 , is the recorded normalized growth below the cut-off of 1?
OUT: TRUE

----------
assay: chemical genetic growth profiling, strain panel (AID 1159580); settings: S. cerevisiae deletion strains, growth OD, locus YDR392W, strain spt3, active compounds read low
In all, about 5,500 compounds went through this assay and about 2,000 (36%) were called active. Another 18% or so got no clear call; they are omitted. Some of the results follow. Where a SMILES comes first, the peptide text is derived from it. Bridges are numbered along the chain shown (N, C = ends). [ ]: non-standard residue; d: D form. The star is where a group is joined. Octanoyl(6-Me) = CCC(C)CCCCC(=O)*; Dab = NCC[CH](N)C(=O)O
reportedProperty: normalized growth
Response field accepts a number only; no unit should be typed.

Below, 10 compounds whose answers are already recorded.
compound | normalized growth
CC(=O)[C@@]1(O)CCC2C3CCC4=CC(=O)CC[C@]4(C)C3CC[C@@]21C (stereo not given in full) | 0.891
COC1(C)CCC2OC2(C)CCC2C1CC2(C)C (stereo not given) | 0.818
CCC1(CC)C(=O)C=CNC1=O | 0.945
CC1(C)C=Cc2cc3ccc(=O)oc3cc2O1 | 0.58
COc1cc2c(cc1OC)[C@@]13CCN4CC5=CCOC6CC(=O)N2C1[C@H]6[C@H]5C[C@H]43 (stereo not given in full) | 0.999
NCCc1cc(O)c(O)cc1O | 0.882
Cc1onc(-c2c(Cl)cccc2Cl)c1C(=O)N[C@@H]1C(=O)N2[C@@H]1SC(C)(C)[C@@H]2C(=O)O | 1.12
CCC(C)CCCCC(=O)NC(CCN)C(=O)NC(C(=O)NC(CCN)C(=O)NC1CCNC(=O)C(C(C)O)NC(=O)C(CCN)NC(=O)C(CCN)NC(=O)C(CC(C)C)NC(=O)C(Cc2ccccc2)NC(=O)C(CCN)NC1=O)C(C)O (stereo not given) ({Octanoyl(6-Me)}-[Dab]T[Dab][Dab][Dab]FL[Dab][Dab]T; lactam 4-C; configuration not given here) | 0.802
O=C(O)[C@H](O)[C@@](O)(Cc1ccc(O)cc1)C(=O)O | 0.976
Cc1onc(-c2ccccc2)c1C(=O)NC1C(=O)N2[C@@H]1SC(C)(C)[C@@H]2C(=O)O (stereo not given in full) | 0.959

Could you now consider this next compound?
The reported normalized growth of the compound COc1cc(-c2oc3cc(O)ccc3c(=O)c2O)ccc1O was 0.868

----------
// reported normalized growth per item
experiment: chemical genetic growth profiling, strain panel (AID 1159580);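 note: tested at 20 µM; growth read once vehicle control cultures reached saturation at 30 °C; 1 = growth at the plate median or of vehicle wells; lower values mean less growth of the strain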; conditions: S. cerevisiae deletion strains, growth OD, locus YGL167C, strain pmr1, active compounds read low
Out of some 5,500 compounds screened, about 2,000 (36%) were called active. Inconclusive results (about 18%) are left out. This is one part of the list. Where a SMILES comes first, the peptide text is derived from it. Side-chain parts run from the residue outwards. [ ]: non-standard residue; d: D form. The star is where a group is joined. X1 = CCC(C)C(N)C1=NC(C(=O)*)CS1; Orn = NCCC[CH](N)C(=O)O
Response field accepts a number only; no unit should be typed.

Below, 4 molecules whose answers are already recorded.
molecule | normalized growth
CCC(C)C(N)C1=NC(C(=O)NC(CC(C)C)C(=O)NC(CCC(=O)O)C(=O)NC(C(=O)NCCCCC2NC(=O)C(CC(N)=O)NC(=O)C(CC(=O)O)NC(=O)C(Cc3cnc[nH]3)NC(=O)C(Cc3ccccc3)NC(=O)C(C(C)CC)NC(=O)C(CCCN)NC2=O)C(C)CC)CS1 (stereo not drawn) (cyclo(DNK([Ile-Glu-Leu-X1])[Orn]IFH); configuration not given here) | 1.02
CC(=O)OC[C@H]1O[C@@H](Oc2cc(OC(C)=O)c3c(=O)cc(-c4ccc(OC(C)=O)cc4)oc3c2)[C@H](OC(C)=O)[C@@H](OC(C)=O)[C@@H]1OC(C)=O | 0.992
O=c1[nH]cnc2c1ncn2C1O[C@H](CO)[C@@H](O)[C@H]1O (some centres undefined) | 0.978
NC(N)=NC(N)=Nc1ccccc1 | 0.993

The reported normalized growth of the molecule CC(=O)NS(=O)(=O)c1ccc(NC(=O)c2ccccc2C(=O)O)cc1 was 1.02

The reported normalized growth of the molecule COc1ccc2c(=O)ccoc2c1 was 1.03

The reported normalized growth of the molecule CCOc1cccc(C(=O)c2ccc(O)c(O)c2O)c1 was 0.935

The reported normalized growth of the molecule Cc1onc(-c2ccccc2Cl)c1C(=O)N[C@@H]1C(=O)N2[C@@H]1SC(C)(C)[C@@H]2C(=O)O was 1.03

The reported normalized growth of the molecule C1CCC(C(CC2CCCCN2)C2CCCCC2)CC1 (centres undefined) was 0.989

The reported normalized growth of the molecule C=C(C)[C@H]1Cc2c(ccc3c2O[C@@H]2COc4cc(OC)c(OC)cc4[C@@H]2C3=O)O1 was 0.97

The reported normalized growth of the molecule O=C(CCc1ccc(O)cc1)c1c(O)cc(O)cc1O[C@@H]1O[C@H](CO)[C@@H](O)[C@H](O)[C@H]1O was 1.03

The reported normalized growth of the molecule CO[C@@]1(NC(=O)Cc2cccs2)C(=O)N2C(C(=O)O)=C(COC(N)=O)CS[C@@H]21 was 0.978

----------
assay: chemical genetic growth profiling, strain panel (AID 1159580);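 note: tested at 20 µM; growth read once vehicle control cultures reached saturation at 30 °C; 1 = growth at the plate median or of vehicle wells; lower values mean less growth of the strain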; settings: S. cerevisiae deletion strains, growth OD, locus YFR010W, strain ubp6, active compounds read low
Hit rate of the full screen: of about 5,500 compounds, about 2,000 (36%) were called active. About 18% were inconclusive and are not listed. The list shows a part of the results. Where a SMILES comes first, the peptide text is derived from it. Side-chain parts run from the residue outwards. [ ]: non-standard residue; d: D form. The star is where a group is joined. X1 = CCC(C)C(N)C1=NC(C(=O)*)CS1; Orn = NCCC[CH](N)C(=O)O
// reported normalized growth per item
Response field accepts a number only; no unit should be typed.

Below, 4 compounds whose answers are already recorded.
compound | reportedProperty | quantitativeReadout
CC1(C)S[C@@H]2[C@H](NC(=O)Cc3ccccc3)C(=O)N2[C@H]1C(=O)O | normalized growth | 1.03
COc1cccc(OC)c1C(=O)N[C@@H]1C(=O)N2[C@@H]1SC(C)(C)[C@@H]2C(=O)O | normalized growth | 0.989
Cc1cc(C(C)(C)C)cc(C)c1CC1=NCCN1 | normalized growth | 1.02
CCC(C)C(N)C1=NC(C(=O)NC(CC(C)C)C(=O)NC(CCC(=O)O)C(=O)NC(C(=O)NCCCCC2NC(=O)C(CC(N)=O)NC(=O)C(CC(=O)O)NC(=O)C(Cc3cnc[nH]3)NC(=O)C(Cc3ccccc3)NC(=O)C(C(C)CC)NC(=O)C(CCCN)NC2=O)C(C)CC)CS1 (stereo not drawn) (cyclo(DNK([Ile-Glu-Leu-X1])[Orn]IFH); configuration not given here) | normalized growth | 1.03

The reported normalized growth of the compound CCOc1ccc(NC(C)=O)cc1 was 1.02

The reported normalized growth of the compound CCOc1ccc(C(=O)c2ccc(OC)c(O)c2O)cc1 was 1.01

The reported normalized growth of the compound CCOc1ccc(C(=O)c2ccc(O)c(O)c2O)cc1 was 0.854

----------
assay: chemical genetic growth profiling, strain panel (AID 1159580);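 note: tested at 20 µM; growth read once vehicle control cultures reached saturation at 30 °C; 1 = growth at the plate median or of vehicle wells; lower values mean less growth of the strain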; details: S. cerevisiae deletion strains, growth OD, locus YDR297W, strain sur2, active compounds read low
Out of some 5,500 compounds screened, about 2,000 (36%) were called active. About 18% were inconclusive and are not listed. The list shows a part of the results.
// reported normalized growth per item
Response field accepts a number only; no unit should be typed.

compound | normalized growth
NCCc1cc(O)c(O)cc1O | 0.941

The reported normalized growth of the compound COc1cc2c(cc1OC)[C@@H]1C(=O)c3ccc4c(c3O[C@@H]1CO2)CC(C(C)C)O4 (stereo partly drawn) was 0.972

The reported normalized growth of the compound c1ccc([C@H]2CN3CCSC3=N2)cc1 was 1.01

The reported normalized growth of the compound O=C(CCc1ccc(O)cc1)c1c(O)cc(O)cc1O[C@@H]1O[C@H](CO)[C@@H](O)[C@H](O)[C@H]1O was 1.02

The reported normalized growth of the compound CC(=O)OCC(=O)[C@@]12OC3(CCCC3)O[C@@H]1CC1C3CCC4=CC(=O)C=C[C@]4(C)[C@@]3(F)[C@@H](O)C[C@@]12C (stereo partly drawn) was 1.02

The reported normalized growth of the compound CC1=NN(c2ccccc2)C(=O)C1 was 0.983

The reported normalized growth of the compound CC(=O)OC[C@H]1O[C@@H](Oc2cc(OC(C)=O)c3c(=O)cc(-c4ccc(OC(C)=O)cc4)oc3c2)[C@H](OC(C)=O)[C@@H](OC(C)=O)[C@@H]1OC(C)=O was 0.988

The reported normalized growth of the compound CC[C@H]1OC(=O)[C@H](C)[C@@H](O[C@H]2C[C@@](C)(OC)[C@@H](O)[C@H](C)O2)[C@H](C)[C@@H](O[C@@H]2O[C@H](C)C[C@H](N(C)C)[C@H]2O)[C@](C)(O)C[C@@H](C)[C@@H]2N[C@@H](COCCOC)O[C@H]([C@H]2C)[C@]1(C)O was 1
